Tested on: XF 498 CNS
Measurement Notes: NCI tumour cell line growth inhibition, 48 h
Measure: TGI

{"columns": ["Compound", "Target Or Test System", "TGI"],
 "data": [
  ["O=C(NN1C(=O)C(Cl)C1c1ccc([N+](=O)[O-])cc1)c1ccccc1O (stereo not given)", "XF 498 CNS", "> 100 µM"],
  ["C=CC[C@@]1(C#N)C[C@H](C[C@]2(C#N)C[C@H](CCl)OC(C)(C)O2)OC(C)(C)O1", "XF 498 CNS", "> 100 µM"],
  ["O/N=C1/C(=C/c2ccccc2)CCCC1C(NO)c1ccccc1 (stereo not given)", "XF 498 CNS", "99.2 µM"]
]}

IN: Using the record for N/C(=N\N=C/c1cc(Cl)cc(Cl)c1O)NO , report its TGI.
OUT: 6.45 µM

IN: Request the reported TGI associated with COc1cc(CCC(=O)NS(=O)(=O)c2ccccc2)cc(OC)c1OC
OUT: > 100 µM

IN: Which measured TGI value corresponds to O=C(O)C1=C(Cl)c2ccccc2S1(=O)=O ?
OUT: > 100 µM
